# Test system: PfAP2-EXP AP2 domain (GST-tagged)
# experimental_details: gcPBM binding intensity (ln(normalized median fluorescence intensity)); higher = stronger DNA binding
The full ranking holds about 25,000 sequences; the median of “ln(normalized median fluorescence intensity)” is about 8.6, and the highest 2% start at about 10. Many of the other results were omitted from the sample, so the highest values are more common in it than they were.
endpoint_label: gcPBM binding intensity (ln)
Respond using a number only.

As a guide, the following entries are already answered.
{"columns": ["item_sequence", "gcPBM binding intensity (ln)"],
 "data": [
  ["AGAAAAAAGAGGGATACACACAAACATATATTTATA [CACACA_site7122]", 8.81],
  ["TATATATATACATACATACACACATATATATATATA [CACACA_site4109]", 10.1],
  ["AAAAATAAAAAAAGCACACACATATAAATAAATATA [CACACA_site6968]", 8.69],
  ["ATATATATATATATATGTACATATATATATGTATAT [XGTACX_site3959]", 10.2]
]}

Then this sequence:
Q. So what's the measured gcPBM binding intensity (ln) for this one? GTATATATATATTTATGTACTTACCTACATAATTAT [XGTACX_site4435]
A. 8.84
